Reference source for all entries: PubChem BioAssay (NCI)

System: NCI/ADR-RES ovarian
Experiment: NCI tumour cell line growth inhibition, 48 h

{"MOLECULE": "O=C1CC2(CCC(O)(c3ccc(Cl)cc3)C(C(=O)c3ccc(Cl)cc3)C2)C(=O)c2ccccc2N1 (centres undefined)", "MEASURED_ON": "NCI/ADR-RES ovarian", "TGI": "> 44.5 µM"}
{"MOLECULE": "COC12C=CC(CC1)C1C(=O)c3c(C)c(C)n(C)c3C(=O)C12 (centres undefined)", "MEASURED_ON": "NCI/ADR-RES ovarian", "TGI": "> 100 µM"}
{"MOLECULE": "COC(=O)C(Nc1ccc(OC)cc1)c1ccccc1 (centres undefined)", "MEASURED_ON": "NCI/ADR-RES ovarian", "TGI": "> 100 µM"}
{"MOLECULE": "COC(=O)C1=CC[C@@H]2C(C(=O)O)=CO[C@@H](OC3OC(CO)C(O)C(O)C3O)[C@H]12 (some centres undefined)", "MEASURED_ON": "NCI/ADR-RES ovarian", "TGI": "> 300 µM"}

----------
// TGI lookup, one value per entry
System: K-562 leukemia
Assay: NCI tumour cell line growth inhibition, 48 h

{"COMPOUND": "N#C/C=C1\\C=CC(O)C(O)C1OC1OC(CO)C(O)C(O)C1O (stereo not drawn)", "TGI": "> 100 µM"}
{"COMPOUND": "COc1ccc(C2C(Cl)C(=O)N2NC(=O)Cc2ccccc2)cc1 (stereo not drawn)", "TGI": "> 100 µM"}
{"COMPOUND": "CN(c1ccccc1)C(c1ccccc1)C(O)c1ccccc1 (stereo not drawn)", "TGI": "41.1 µM"}
{"COMPOUND": "NC1=NC(OCC2(CO)CCC2)C=C(NCC2(CO)CCC2)N1 (stereo not drawn)", "TGI": "> 100 µM"}
{"COMPOUND": "C[Si](C)(C)OC1c2[nH]c3ccccc3c2CN2C(=O)CCC12 (stereo not drawn)", "TGI": "> 100 µM"}
{"COMPOUND": "O=S(=O)(O)c1c(N=Nc2c(O)ccc3ccccc23)ccc2ccccc12", "TGI": "> 100 µM"}
{"COMPOUND": "COC(=O)C1=CC[C@@H]2C(C(=O)O)=CO[C@@H](OC3OC(CO)C(O)C(O)C3O)[C@H]12 (stereo partly drawn)", "TGI": "> 300 µM"}
{"COMPOUND": "CC(=O)CCC[C@@H](C)[C@@H]1O[C@H]([C@@]2(C)CCC(=O)O2)C[C@H]2C(CSc3ccccc3)C(=O)O[C@@H]12 (stereo partly drawn)", "TGI": "> 100 µM"}
{"COMPOUND": "O=C1c2ccccc2-c2c1c1ccccc1c(=O)n2CCNCCNCCn1c2c(c3ccccc3c1=O)C(=O)c1ccccc1-2", "TGI": "> 100 µM"}
{"COMPOUND": "COC(=O)[C@H](Cc1ccccc1)NC(=O)N1CCN(C(=O)N[C@@H](Cc2ccccc2)C(=O)OC)CCN(C(=O)N[C@@H](Cc2ccccc2)C(=O)OC)CC1", "TGI": "> 100 µM"}
{"COMPOUND": "CC(=O)OC(C)(C)/C=C/C(=O)[C@](C)(O)[C@H]1[C@H](O)C[C@@]2(C)[C@@H]3CC=C4[C@@H](C[C@H](O)C(=O)C4(C)C)[C@]3(C)C(=O)C[C@]12C", "TGI": "16.8 µM"}
{"COMPOUND": "CC1N(C)C(=O)OC12CCN(CCCC(=O)c1ccc(F)cc1)CC2 (stereo not drawn)", "TGI": "> 100 µM"}
{"COMPOUND": "Cc1cc2oc(=O)[nH]c(=S)c2c(C)c1C", "TGI": "> 100 µM"}
{"COMPOUND": "CCOC(=O)C(=O)Nc1c(N(CC)CC)n2ccccc2nc1=O", "TGI": "> 100 µM"}
{"COMPOUND": "COc1cc(/C=C/C(=O)c2ccc(Cl)cc2)ccc1OS(=O)(=O)c1ccc(C)cc1", "TGI": "11.3 µM"}
{"COMPOUND": "COc1cc2[nH]c(-c3cccc(N(C)C)c3)cc(=O)c2cc1OC", "TGI": "> 100 µM"}
{"COMPOUND": "O=[N+]([O-])c1cccc2nccc(NCC(O)CO)c12 (stereo not drawn)", "TGI": "> 93.3 µM"}
{"COMPOUND": "COC(=O)c1ccc(N=NN(C)CO)cc1", "TGI": "> 100 µM"}
